The reported measurements were obtained from patent US10576095B2.

assay: Cytotoxicity assay, wst-1 cell proliferation, HEK-293; type: cell-based; details: human, 24 hours incubation, read-out: LC50 Mean
Recorded Metric: CC50 at 24 h (mM)
Give bare numbers, in mM.

Request: // returns reported CC50 at 24 h for input CN[C@@H]1[C@@H](O)[C@@H](O[C@@H]2[C@@H](O)[C@H](O[C@H]3O[C@H]([C@@H](C)O)[C@@H](O)[C@H](O)[C@H]3N)[C@@H](N)C[C@H]2N)OC[C@]1(C)O [Compound G418, geneticin, reference compound]
Result: 2.1

* * *

tested on: Rett R270X nonsense mutation construct; type: biochemical; conditions: TNT reticulocyte lysate; 0-50 μM, dose-escalating
Recorded Metric: Translational Inhibition (TI) R270X (μm)
Numbers only, in μm.

Request: Lab note: need Translational Inhibition (TI) R270X for C[C@H](N)[C@H]1O[C@@H](O[C@@H]2C(O)[C@H](N)CC(N)[C@H]2O[C@H]2OC([C@@H](C)O)[C@@H](O)[C@H](O)C2N)C(O)[C@H]1O (some centres unmarked) on Rett R270X nonsense mutation construct, anyone have it?
Result: 5.32

Request: What measured Translational Inhibition (TI) R270X is associated with CC(N)C1OC(OC2C(O)C(NC(=O)C(O)CCN)CC(N)C2OC2OC(C(C)O)C(O)C(O)C2N)C(O)C1O (centres unmarked) [NB128] on Rett R270X nonsense mutation construct?
Result: 1.48

Request: For the record C[C@@H](N)[C@H]1O[C@@H](O[C@@H]2C(O)[C@H](NC(=O)[C@@H](O)CCN)CC(N)[C@H]2O[C@H]2OC(CO)[C@@H](O)[C@H](O)C2N)C(O)[C@H]1O (some centres unmarked) , what value of Translational Inhibition (TI) R270X is listed for Rett R270X nonsense mutation construct?
Result: 14.48

Request: Can you look up Translational Inhibition (TI) R270X on Rett R270X nonsense mutation construct for C[C@H](N)[C@H]1O[C@@H](O[C@@H]2C(O)[C@H](NC(=O)[C@@H](O)CCN)CC(N)[C@H]2O[C@H]2OC(CO)[C@@H](O)[C@H](O)C2N)C(O)[C@H]1O (some centres unmarked) ?
Result: 3.75

Pending molecule:
Request: // fetch Rett R270X nonsense mutation construct Translational Inhibition (TI) R270X for CC(N)C1OC(OC2C(O)C(NC(=O)C(O)CCN)CC(N)C2OC2OC(C(C)O)C(O)C(O)C2N)C(O)C1O (centres unmarked) [NB127]
Result: 2.27
